Where do these numbers come from? They come from patent US20250034216A1.

Readings of % engagement WDR45B_C63 for the listed molecules
- measured-target: WDR45B_C63 (Homo sapiens, UniProt Q5MNZ6)
- Construct: endogenous in cells; host or cells: 22Rv1
- Sequence (Q5MNZ6 whole entry): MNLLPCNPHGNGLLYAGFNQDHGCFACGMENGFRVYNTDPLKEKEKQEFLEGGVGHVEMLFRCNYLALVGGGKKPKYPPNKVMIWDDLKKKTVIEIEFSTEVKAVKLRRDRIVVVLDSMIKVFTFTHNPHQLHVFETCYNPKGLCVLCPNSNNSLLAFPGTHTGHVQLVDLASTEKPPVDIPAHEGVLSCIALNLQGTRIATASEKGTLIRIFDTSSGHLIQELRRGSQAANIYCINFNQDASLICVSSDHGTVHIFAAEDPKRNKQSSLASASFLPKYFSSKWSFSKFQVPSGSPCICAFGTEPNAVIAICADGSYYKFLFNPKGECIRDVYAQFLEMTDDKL
- assay-info: IA-DTB cysteine engagement
- Assay type: binding
- experimental-setup: 22Rv1 cells, 20 μM probe, 1 h, relative to DMSO
- Experimental: Sample preparation: Cells (adherent: 15 cm dishes, suspension: 2 million cells/mL) were treated with electrophilic probes in situ for indicated times and concentrations, washed with ice-cold PBS, and flash frozen in liquid nitrogen. […] Whole cell lysates protein content was measured using a standard DC protein assay (Bio-Rad) and 500 μL (2 mg/mL protein content) were treated with 5 μL of 10 mM 1A-DTB (in DMSO) for 1 h at ambient temperature with occasional vortexing. […]
Supply the numeric figure in %, leaving out any unit text.

C=CC(=O)N1C[C@@H](c2ccc(Br)cc2)[C@H]1C(=O)Nc1cccc2cccnc12: 52.25

Query :: # get_value(readout='% engagement WDR45B_C63', item= C=CC(=O)N1C[C@H](c2ccc(Br)cc2)[C@H]1C(=O)Nc1cccc2cccnc12 [MY-3A] )
Result :: 0

Query :: Can you look up the measured % engagement WDR45B_C63 of C=CC(=O)N1C[C@H](c2ccc(Br)cc2)[C@H]1C(=O)Nc1cccc2cccnc12 [MY-3B] for me?
Result :: 86.75

Query :: Please give the measured % engagement WDR45B_C63 for this molecule: C=CC(=O)N1C[C@H](c2ccc(Br)cc2)[C@@H]1C(=O)Nc1cccc2cccnc12
Result :: 7.25

----------
- measured-target: ANKRD46_C61 (Homo sapiens, UniProt Q86W74)
- Construct: endogenous in cells; host or cells: 22Rv1
- Sequence (Q86W74 whole entry): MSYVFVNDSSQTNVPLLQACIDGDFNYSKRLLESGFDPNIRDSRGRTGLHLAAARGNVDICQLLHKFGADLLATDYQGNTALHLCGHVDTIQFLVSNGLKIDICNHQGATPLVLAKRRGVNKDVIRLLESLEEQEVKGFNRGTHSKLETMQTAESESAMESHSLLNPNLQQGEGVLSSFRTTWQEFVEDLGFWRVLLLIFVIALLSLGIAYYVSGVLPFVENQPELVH
- assay-info: IA-DTB cysteine engagement
- Assay type: binding
- experimental-setup: 22Rv1 cells, 20 μM probe, 1 h, relative to DMSO
test-readout: % engagement ANKRD46_C61 (%)
The answer is to be given in %; state only the numeric part.

C=CC(=O)N1C[C@@H](c2ccc(Br)cc2)[C@H]1C(=O)Nc1cccc2cccnc12 [MY-1A]: 17.5

Query :: Find the measured % engagement ANKRD46_C61: item C=CC(=O)N1C[C@H](c2ccc(Br)cc2)[C@@H]1C(=O)Nc1cccc2cccnc12 [MY-1B] , target or system ANKRD46_C61 (Homo sapiens, UniProt Q86W74).
Result :: 28.5

Query :: Recorded % engagement ANKRD46_C61 for C=CC(=O)N1C[C@H](c2ccc(Br)cc2)[C@H]1C(=O)Nc1cccc2cccnc12 [MY-3B] with ANKRD46_C61 (Homo sapiens, UniProt Q86W74), please?
Result :: 66.5

Query :: Which measured % engagement ANKRD46_C61 belongs to C=CC(=O)N1C[C@H](c2ccc(Br)cc2)[C@H]1C(=O)Nc1cccc2cccnc12 [MY-3A] , tested on ANKRD46_C61 (Homo sapiens, UniProt Q86W74)?
Result :: 5.5

----------
- measured-target: SYNE2_C2994 (Homo sapiens)
- Construct: endogenous in cells; host or cells: 22Rv1
- assay-info: IA-DTB cysteine engagement
- Assay type: binding
- experimental-setup: 22Rv1 cells, 20 μM probe, 1 h, relative to DMSO
Examples of molecules with documented % engagement SYNE2_C2994 follow.
The reply should contain only the number, in %.

Sample answers from the record:
C=CC(=O)N1C[C@@H](c2ccc(Br)cc2)[C@H]1C(=O)Nc1cccc2cccnc12: 29.5
C=CC(=O)N1C[C@H](c2ccc(Br)cc2)[C@H]1C(=O)Nc1cccc2cccnc12 [MY-3B]: 37.5
C=CC(=O)N1C[C@H](c2ccc(Br)cc2)[C@@H]1C(=O)Nc1cccc2cccnc12: 75.75

Query :: Which % engagement SYNE2_C2994 value belongs to C=CC(=O)N1C[C@H](c2ccc(Br)cc2)[C@H]1C(=O)Nc1cccc2cccnc12 [MY-3A] ?
Result :: 11.25
